Documented GI50 across a set of molecules
Tested on: A498
assayRemarks: NCI tumour cell line growth inhibition, 48 h
The source made the active and inactive calls. Cut-off read from the data, not from the text of the source: active = GI50 up to about 1.1 µM and inactive = higher.

>  <molecule>
C=C1C(=O)OC2/C=C(\CO)C3OC3C3OC3(C)CC(OC(=O)/C(=C/C)CO)C12 (centres undefined)

>  <systemTested>
A498

>  <GI50>
> 100 µM (inactive)

$$$$
>  <molecule>
O=C(O)COCC(=O)N(CCOCCN(Cc1ccccc1)C(=O)COCC(=O)O)Cc1ccccc1

>  <systemTested>
A498

>  <GI50>
> 100 µM (inactive)

$$$$
>  <molecule>
Cc1ccc(C2(N3CCCC3)OC(C)(C)c3cccc4cccc2c34)cc1 (centres undefined)

>  <systemTested>
A498

>  <GI50>
16.2 µM (inactive)

$$$$

Using the record for CC1=C(C(=O)Nc2ccccc2)C(c2ccccc2)C(C(=O)Nc2ccccc2)=C(C)N1 , report its GI50.
86.1 µM (inactive)

Moving on to the next molecule: O=[N+]([O-])c1ccc(/C=C/c2cc(-c3ccccc3)nc3ccc4ccccc4c23)cc1
> 100 µM (inactive)

###

Tested on: LOX IMVI
assayRemarks: NCI tumour cell line growth inhibition, 48 h
Activity calls are given as the source filed them. Rule as the data show it: active = GI50 up to about 1.1 µM and inactive = higher.
Can you answer with just one of these options? active, inactive

Example entries and their recorded answers appear below.
>  <smilesRepresentation>
COc1ccc(NC(=S)N/N=C\c2ccc(NC(C)=O)cc2)cc1

>  <category>
inactive

$$$$
>  <smilesRepresentation>
COc1ccc(/C=C/C(=O)c2cccc(C(=O)/C=C/c3ccc(OC)c(OC)c3)n2)cc1OC

>  <category>
inactive

$$$$

What is the recorded call for this molecule in the test? O=C1c2ccccc2C(=O)c2oc(Br)cc21
active

###

Test system: HCC 2998
assayRemarks: NCI tumour cell line growth inhibition, 48 h
Calls of active or inactive are those of the source. Rule as the data show it: active = GI50 up to about 1.1 µM and inactive = higher.
Can you answer with just one of these options? active, inactive

Example entries and their recorded answers appear below.
>  <compound>
C/C(=N\Nc1nc2cc(Cl)ccc2s1)c1ccccn1

>  <category>
inactive

$$$$
>  <compound>
C=C1C(=O)C2=CC1CCC(=O)C1(C)CCC(OC(C)=O)C(C)(C)C1CC2O (centres undefined)

>  <category>
inactive

$$$$
>  <compound>
CN(C)CCCNc1ccc2c(=O)n(CCN(C)C)c(=O)n3c4ccccc4c(=O)c1c23

>  <category>
active

$$$$
>  <compound>
C#C[C@]1(O)CCC2C3CCc4cc(Oc5nc(F)nc(-n6c(C)nc7cc8ccccc8cc76)n5)ccc4C3CCC21C (some centres undefined)

>  <category>
inactive

$$$$
>  <compound>
CCOC(=O)C1(Cc2c[nH]c3ccccc23)C(O)CCCN1C(C)=O (centres undefined)

>  <category>
inactive

$$$$

What is the recorded call for this compound in the test? C/C=C(\N=C=S)C(=O)OC1C(COC(C)=O)OC([C@]2(O)CC(=O)C(N)=C(C(=O)O)C2=O)C(O)C1OC1CC(OC)C(O)([C@@H](C)OC(=O)[C@@H](C)CC)C(C)O1 (some centres undefined)
inactive

Moving on to the next compound: O=C(O)c1cc(/N=N/c2ccc([As](=O)(O)O)cc2)ccc1O
inactive

Moving on to the next compound: O=C1Cc2c([nH]c3ccc([N+](=O)[O-])cc23)-c2ccccc2N1
active

Moving on to the next compound: CSC[S+]([O-])C[C@H](CO)NC(=O)/C=C/c1c(C)[nH]c(=O)[nH]c1=O (some centres undefined)
inactive

Moving on to the next compound: Nn1c(CCCCCCCCc2nnc(COc3ccc4ccccc4c3O)n2N)nnc1COc1ccc2ccccc2c1O
inactive

Moving on to the next compound: COC(=O)c1ccccc1/C=C1\Cc2ccc3ccccc3c2C1C (centres undefined)
inactive

Moving on to the next compound: NC(=O)/N=C(\N)NC(=O)c1ccccc1
inactive

Moving on to the next compound: COc1cc2[nH]c(=O)[nH]c2c2c(C)c[nH]c12
inactive

Moving on to the next compound: COc1ccc2c(c1)C(=O)N1CCOC1C2C(=O)O (centres undefined)
inactive

Just for reference, ChEMBL document CHEMBL1201862 is where these values come from.
